Value source: paper PMC6387968

Consider the following compounds; for each one, report its clearance.
test: in vivo; set-up: species or system male C57BL/6 mice; settings: male, C57BL/6, mouse, iv, 5 mg/kg
Numeric answer plus unit only.

Input line: Quick check: clearance of CCCCCCCCCCOc1cc2c(=O)c(C(=O)NCCNCCO)cn(CC)c2cc1OCC ?
Output line: 1.18 mL/min/kg

Input line: So what does the record say about clearance for CCCCCCCCCCOc1cc2c(=O)c(C(=O)NCCOCCO)cn(CC)c2cc1OCC ?
Output line: 0.385 mL/min/kg

Input line: Endpoint output: clearance of CCCCCCCCCCOc1cc2c(=O)c(C(=O)NCCOCCO)cn(CCO)c2cc1OCC . Value?
Output line: 0.575 mL/min/kg

* * *

assay: in vivo; set-up: species or system male C57BL/6 mice; conditions: male, C57BL/6, mouse, po, 20 mg/kg
Give Tmax for every item shown.
# output: bare number, implied unit min

Input line: Find the recorded Tmax belonging to CCCCCCCCCCOc1cc2c(=O)c(C(=O)NCCOCCO)cn(CCO)c2cc1OCC [RMB073] and report it.
Output line: 30

Input line: Quick check: Tmax of CCCCCCCCCCOc1cc2c(=O)c(C(=O)NCCOCCO)cn(CC)c2cc1OCC [RMB041] ?
Output line: 30

Input line: Form field: reported Tmax of CCCCCCCCCCOc1cc2c(=O)c(C(=O)NCCNCCO)cn(CC)c2cc1OCC [RMB043]
Output line: 30

* * *

Task for the reader: assign each of the following molecules its reported microsomal CLint at 0.1 M.
Test: in vitro
Format: in vitro ADME
Conditions: microsomes
Experimental: RMB041, -043, and -073 ([…]) prepared in DMSO were incubated separately with 530 μL mouse and human microsomes (0.4 mg/mL) at 37°C with the cofactor NADPH (1 mM). Compounds were assessed at 0 and 60 min. […] The samples were analyzed via LC-MS/MS using the instrumentation and conditions described above. […] Metabolic stability was assessed as the compound’s depletion from a starting concentration of […] over 1 h in mouse and human microsomal fractions. […]

Input line: What value of microsomal CLint at 0.1 M has been recorded for this entry: CCCCCCCCCCOc1cc2c(=O)c(C(=O)NCCNCCO)cn(CC)c2cc1OCC
Output line: < 110 µL/min/mg

Input line: Item under review: CCCCCCCCCCOc1cc2c(=O)c(C(=O)NCCOCCO)cn(CCO)c2cc1OCC . Reported microsomal CLint at 0.1 M?
Output line: < 20 µL/min/mg

Input line: Given the entry CCCCCCCCCCOc1cc2c(=O)c(C(=O)NCCOCCO)cn(CC)c2cc1OCC , report its measured microsomal CLint at 0.1 M.
Output line: < 20 µL/min/mg

* * *

Can you tell me logD for the items I'm about to list?
test: physchem; format: physicochemical; settings: pH 7.4
Response field accepts a number only; no unit should be typed.

Input line: Find the recorded logD belonging to CCCCCCCCCCOc1cc2c(=O)c(C(=O)NCCOCCO)cn(CCO)c2cc1OCC and report it.
Output line: 0.36

Input line: Which logD value belongs to CCCCCCCCCCOc1cc2c(=O)c(C(=O)NCCOCCO)cn(CC)c2cc1OCC ?
Output line: 0.48

Input line: For the molecule shown here, CCCCCCCCCCOc1cc2c(=O)c(C(=O)NCCNCCO)cn(CC)c2cc1OCC , give the reported logD.
Output line: 0.84
